# Target Or System: human CD3E&G complex (Sino Biological Inc., CT041-H0305H) (human) (UniProt P07766)
# Sequence (P07766 23-126, chain 1 of 2): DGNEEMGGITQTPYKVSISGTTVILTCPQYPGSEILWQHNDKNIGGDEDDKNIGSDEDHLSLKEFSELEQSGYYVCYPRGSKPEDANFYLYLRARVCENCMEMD
# Sequence (P09693 23-116, chain 2 of 2, further chain): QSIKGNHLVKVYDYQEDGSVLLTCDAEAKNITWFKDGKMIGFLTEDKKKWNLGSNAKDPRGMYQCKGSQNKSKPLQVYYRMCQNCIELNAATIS
# Protocol Details: SPR, antigen on chip
Readout Kind: koff

[[record]]
binder = "SGN70-sp34.99LH (bispecific antibody, part only; not given: anti-CD70 Fab arm and Fc, not shown: another chain or arm of the molecule; a dimerising Fc or GST) scFv: QAVVTQEPSLTVSPGGTVTLTCRSSTGAVTTSNYANWVQQKPGQAPRGLIGGTNKRAPGVPARFSGSLLGDKAALTLLGAQPEDEAEYYCALWYSNLWVFGQGTKLTVLGGGGSGGGGSGGGGSGGGGSEVQLVESGGGLVQPGGSLKLSCAASGFTFNTYAMNWVRQASGKGLEWVGRIRSKYNNYATYYADSVKDRFTISRDDSKSTLYLQMNSLKTEDTAVYYCARHGNAYQSYVSWFAYWGQGTTVTVSS"
readout_kind = "koff"
reported_measurement = "0.993 s⁻¹"


# credit: patent US20230374132A1
